# Test system: A549 cells
# assayDetails: EGF assay, A549 cells transfected with oligonucleotide;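 note: values as percent of saline control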
# Type: cell-based, human
# recordedConditions: A549, 48 hours after transfection, 1 ng oligonucleotide
l = locked nucleic acid (LNA); d = 2'-deoxy (DNA)
readoutName: EGF (% saline)
Dear colleague, please return just the value in % saline, with no unit written.

Data point: TGCtacaaaacCCA (antisense TGCTACAAAACCCA; sugars from the 5' end l3 d8 l3, backbone and methylation of C not given here) [Compound 3-1] ; EGF = 99

Data point: GCtgtgtgagcttGG (antisense GCTGTGTGAGCTTGG; sugars from the 5' end l2 d11 l2, backbone and methylation of C not given here) [Compound 4-1] ; EGF = 132

Data point: ACTgctttccactCTG (ACTGCTTTCCACTCTG; chemistry not given here) [Compound 8-1] ; EGF = 140

Data point: CGTcagtatgcgAATc (CGTCAGTATGCGAATC; chemistry not given here) [Compound 1-1] ; EGF = 69

Data point: AATgctacaaaaCCCA (antisense AATGCTACAAAACCCA; sugars from the 5' end l3 d9 l4, backbone and methylation of C not given here) [Compound 2-1] ; EGF = 80

----------
# Test system: PTEC-TERT1 cells
# assayDetails: EGF assay, supernatant of PTEC-TERT1 cells
# recordedConditions: PTEC-TERT1, Day 6, 100 μM (Table 4)
readoutName: EGF (% saline)
Dear colleague, please return just the value in % saline, with no unit written.

Data point: TGCtcaacatcAAG (TGCTCAACATCAAG; chemistry not given here) [Compound 11-1] ; EGF = 371

Data point: TTTacacttgaCCC (TTTACACTTGACCC; chemistry not given here) [Compound 13-1] ; EGF = 39

Data point: CTAtgtgttccTGT (CTATGTGTTCCTGT; chemistry not given here) [Compound 15-1] ; EGF = 234

Data point: TTAcacttgacCCA (TTACACTTGACCCA; chemistry not given here) [Compound 12-1] ; EGF = 71

Data point: CATtgcattgttTCCG (CATTGCATTGTTTCCG; chemistry not given here) [Compound 19-2] ; EGF = 770

Data point: CAAaggaaacacaCAT (CAAAGGAAACACACAT; chemistry not given here) [Compound 6-1] ; EGF = 118

Data point: CATtgcattgtttCCG (CATTGCATTGTTTCCG; chemistry not given here) [Compound 19-1] ; EGF = 413

These measurements were taken from patent US11105794B2.
